Exercise: for every item that follows, state its recorded solubility in G1/S (log2).
system: HeLa Kyoto; assay: solubility in G1/S (NP-40 vs SDS abundance) (log2 ratio); higher = more soluble; details: cell cycle stage: G1/S
Reply with just the number.

[in] Please give the documented solubility in G1/S (log2) of MARMNRPAPVEVTYKNMRFLITHNPTNATLNKFIEELKKYGVTTIVRVCEATYDTTLVEKEGIHVLDWPFDDGAPPSNQIVDDWLSLVKIKFREEPGCCIAVHCVAGLGRAPVLVALALIEGGMKYEDAVQFIRQKRRGAFNSKQLLYLEKYRPKMRLRFKDSNGHRNNCCIQ [PTP4A1]
[out] -0.131

[in] Input MAATSLMSALAARLLQPAHSCSLRLRPFHLAAVRNEAVVISGRKLAQQIKQEVRQEVEEWVASGNKRPHLSVILVGENPASHSYVLNKTRAAAVVGINSETIMKPASISEEELLNLINKLNNDDNVDGLLVQLPLPEHIDERRICNAVSPDKDVDGFHVINVGRMCLDQYSMLPATPWGVWEIIKRTGIPTLGKNVVVAGRSKNVGMPIAMLLHTDGAHERPGGDATVTISHRYTPKEQLKKHTILADIVISAAGIPNLITADMIKEGAAVIDVGINRVHDPVTAKPKLVGDVDFEGVRQKAGYITPVPGGVGPMTVAMLMKNTIIAAKKVLRLEEREVLKSKELGVATN [MTHFD2] , output reported solubility in G1/S (log2).
[out] 0.505

[in] Give a short answer stating reported solubility in G1/S (log2) for MAQFVRNLVEKTPALVNAAVTYSKPRLATFWYYAKVELVPPTPAEIPRAIQSLKKIVNSAQTGSFKQLTVKEAVLNGLVATEVLMWFYVGEIIGKRGIIGYDV [ATP5L] .
[out] -0.573

[in] Check the records and state solubility in G1/S (log2) for MSWLLFLAHRVALAALPCRRGSRGFGMFYAVRRGRKTGVFLTWNECRAQVDRFPAARFKKFATEDEAWAFVRKSASPEVSEGHENQHGQESEAKASKRLREPLDGDGHESAEPYAKHMKPSVEPAPPVSRDTFSYMGDFVVVYTDGCCSSNGRRRPRAGIGVYWGPGHPLNVGIRLPGRQTNQRAEIHAACKAIEQAKTQNINKLVLYTDSMFTINGITNWVQGWKKNGWKTSAGKEVINKEDFVALERLTQGMDIQWMHVPGHSGFIGNEEADRLAREGAKQSED [RNASEH1]
[out] 0.274

[in] Identify the reported solubility in G1/S (log2) for the following entry. MSGCRVFIGRLNPAAREKDVERFFKGYGRIRDIDLKRGFGFVEFEDPRDADDAVYELDGKELCSERVTIEHARARSRGGRGRGRYSDRFSSRRPRNDRRNAPPVRTENRLIVENLSSRVSWQDLKDFMRQAGEVTFADAHRPKLNEGVVEFASYGDLKNAIEKLSGKEINGRKIKLIEGSKRHSRSRSRSRSRTRSSSRSRSRSRSRSRKSYSRSRSRSRSRSRSKSRSVSRSPVPEKSQKRGSSSRSKSPASVDRQRSRSRSRSRSVDSGN [SRSF5]
[out] -0.33

[in] Query solubility in G1/S (log2) for MAASEAAVVSSPSLKTDTSPVLETAGTVAAMAATPSARAAAAVVAAAARTGSEARVSKAALATKLLSLSGVFAVHKPKGPTSAELLNRLKEKLLAEAGMPSPEWTKRKKQTLKIGHGGTLDSAARGVLVVGIGSGTKMLTSMLSGSKRYTAIGELGKATDTLDSTGRVTEEKPYDKITQEDIEGILQKFTGNIMQVPPLYSALKKDGQRLSTLMKRGEVVEAKPARPVTVYSISLQKFQPPFFTLDVECGGGFYIRSLVSDIGKELSSCANVLELTRTKQGPFTLEEHALPEDKWTIDDIAQSLEHCSSLFPAELALKKSKPESNEQVLSCEYITLNEPKREDDVIKTC [TRUB1]
[out] 0.549

###

tested on: HeLa Kyoto; test: thermal stability score vs G1/S (z-score of summed log2 fold changes over temperatures); higher = more thermally stable than in G1/S; conditions: cell cycle stage: early G1 (4.5 h after nocodazole release)
quantity-kind: thermal stability score
Form field (numeric): enter value without unit.

[in] Quickly give me recorded thermal stability score for MAEPDPSHPLETQAGKVQEAQDSDSDSEGGAAGGEADMDFLRNLFSQTLSLGSQKERLLDELTLEGVARYMQSERCRRVICLVGAGISTSAGIPDFRSPSTGLYDNLEKYHLPYPEAIFEISYFKKHPEPFFALAKELYPGQFKPTICHYFMRLLKDKGLLLRCYTQNIDTLERIAGLEQEDLVEAHGTFYTSHCVSASCRHEYPLSWMKEKIFSEVTPKCEDCQSLVKPDIVFFGESLPARFFSCMQSDFLKVDLLLVMGTSLQVQPFASLISKAPLSTPRLLINKEKAGQSDPFLGMIMGLGGGMDFDSKKAYRDVAWLGECDQGCLALAELLGWKKELEDLVRREHASIDAQSGAGVPNPSTSASPKKSPPPAKDEARTTEREKPQ [SIRT2]
[out] 0.148

[in] Determine from records and report thermal stability score for MAEQEPTAEQLAQIAAENEEDEHSVNYKPPAQKSIQEIQELDKDDESLRKYKEALLGRVAVSADPNVPNVVVTGLTLVCSSAPGPLELDLTGDLESFKKQSFVLKEGVEYRIKISFRVNREIVSGMKYIQHTYRKGVKIDKTDYMVGSYGPRAEEYEFLTPVEEAPKGMLARGSYSIKSRFTDDDKTDHLSWEWNLTIKKDWKD [ARHGDIA]
[out] 0.408

###

system: HeLa Kyoto; test: thermal stability score vs G1/S (z-score of summed log2 fold changes over temperatures); higher = more thermally stable than in G1/S; conditions: cell cycle stage: mitosis
Please provide measured thermal stability score for the entries that follow.
Enter a number only.

[in] Return the recorded thermal stability score value; entry: MKHINLSFAACGFLGIYHLGAASALCRHGKKLVKDVKAFAGASAGSLVASVLLTAPEKIEECNQFTYKFAEEIRRQSFGAVTPGYDFMARLRSGMESILPPSAHELAQNRLHVSITNAKTRENHLVSTFSSREDLIKVLLASSFVPIYAGLKLVEYKGQKWVDGGLTNALPILPVGRTVTISPFSGRLDISPQDKGQLDLYVNIAKQDIMLSLANLVRLNQALFPPSKRKMESLYQCGFDDTVKFLLKENWFE [PNPLA4]
[out] 1.11

[in] Fill in reported thermal stability score for this entry: MVFYFTSSSVNSSAYTIYMGKDKYENEDLIKHGWPEDIWFHVDKLSSAHVYLRLHKGENIEDIPKEVLMDCAHLVKANSIQGCKMNNVNVVYTPWSNLKKTADMDVGQIGFHRQKDVKIVTVEKKVNEILNRLEKTKVERFPDLAAEKECRDREERNEKKAQIQEMKKREKEEMKKKREMDELRSYSSLMKVENMSSNQDGNDSDEFM [CCDC25]
[out] -0.134

[in] Please indicate thermal stability score recorded for MEDDAPVIYGLEFQARALTPQTAETDAIRFLVGTQSLKYDNQIHIIDFDDENNIINKNVLLHQAGEIWHISASPADRGVLTTCYNRTSDSKVLTCAAVWRMPKELESGSHESPDDSSSTAQTLELLCHLDNTAHGNMACVVWEPMGDGKKIISLADNHILLWDLQESSSQAVLASSASLEGKGQLKFTSGRWSPHHNCTQVATANDTTLRGWDTRSMSQIYCIENAHGQLVRDLDFNPNKQYYLASCGDDCKVKFWDTRNVTEPVKTLEEHSHWVWNVRYNHSHDQLVLTGSSDSRVILSNMVSISSEPFGHLVDDDDISDQEDHRSEEKSKEPLQDNVIATYEEHEDSVYAVDWSSADPWLFASLSYDGRLVINRVPRALKYHILL [TSSC1]
[out] -0.357

###

test system: HeLa Kyoto; experiment: solubility in G1/S (NP-40 vs SDS abundance) (log2 ratio); higher = more soluble; conditions: cell cycle stage: G1/S
quantity-kind: solubility in G1/S (log2)
Form rule: numeric answer, no unit written next to it.

[in] Provide only the value of recorded solubility in G1/S (log2) for MARTLEPLAKKIFKGVLVAELVGVFGAYFLFSKMHTSQDFRQTMSKKYPFILEVYYKSTEKSGMYGIRELDQKTWLNSKN [CEBPZOS]
[out] -0.306

[in] Return the recorded solubility in G1/S (log2) value; entry: MALTVDVAGPAPWGFRITGGRDFHTPIMVTKVAERGKAKDADLRPGDIIVAINGESAEGMLHAEAQSKIRQSPSPLRLQLDRSQATSPGQTNGDSSLEVLATRFQGSVRTYTESQSSLRSSYSSPTSLSPRAGSPFSPPPSSSSLTGEAAISRSFQSLACSPGLPAADRLSYSGRPGSRQAGLGRAGDSAVLVLPPSPGPRSSRPSMDSEGGSLLLDEDSEVFKMLQENREGRAAPRQSSSFRLLQEALEAEERGGTPAFLPSSLSPQSSLPASRALATPPKLHTCEKCSTSIANQAVRIQEGRYRHPGCYTCADCGLNLKMRGHFWVGDELYCEKHARQRYSAPATLSSRA [PDLIM2]
[out] 0.17

[in] Identify measured solubility in G1/S (log2) associated with MVSWMISRAVVLVFGMLYPAYYSYKAVKTKNVKEYVRWMMYWIVFALYTVIETVADQTVAWFPLYYELKIAFVIWLLSPYTKGASLIYRKFLHPLLSSKEREIDDYIVQAKERGYETMVNFGRQGLNLAATAAVTAAVKSQGAITERLRSFSMHDLTTIQGDEPVGQRPYQPLPEAKKKSKPAPSESAGYGIPLKDGDEKTDEEAEGPYSDNEMLTHKGLRRSQSMKSVKTTKGRKEVRYGSLKYKVKKRPQVYF [REEP3]
[out] -0.258
